Values compiled from ChEMBL document CHEMBL1154708.

- targetOrSystem: cAMP and cAMP-inhibited cGMP 3',5'-cyclic phosphodiesterase 10A (Homo sapiens, UniProt Q9Y233)
- Sequence (Q9Y233 whole entry): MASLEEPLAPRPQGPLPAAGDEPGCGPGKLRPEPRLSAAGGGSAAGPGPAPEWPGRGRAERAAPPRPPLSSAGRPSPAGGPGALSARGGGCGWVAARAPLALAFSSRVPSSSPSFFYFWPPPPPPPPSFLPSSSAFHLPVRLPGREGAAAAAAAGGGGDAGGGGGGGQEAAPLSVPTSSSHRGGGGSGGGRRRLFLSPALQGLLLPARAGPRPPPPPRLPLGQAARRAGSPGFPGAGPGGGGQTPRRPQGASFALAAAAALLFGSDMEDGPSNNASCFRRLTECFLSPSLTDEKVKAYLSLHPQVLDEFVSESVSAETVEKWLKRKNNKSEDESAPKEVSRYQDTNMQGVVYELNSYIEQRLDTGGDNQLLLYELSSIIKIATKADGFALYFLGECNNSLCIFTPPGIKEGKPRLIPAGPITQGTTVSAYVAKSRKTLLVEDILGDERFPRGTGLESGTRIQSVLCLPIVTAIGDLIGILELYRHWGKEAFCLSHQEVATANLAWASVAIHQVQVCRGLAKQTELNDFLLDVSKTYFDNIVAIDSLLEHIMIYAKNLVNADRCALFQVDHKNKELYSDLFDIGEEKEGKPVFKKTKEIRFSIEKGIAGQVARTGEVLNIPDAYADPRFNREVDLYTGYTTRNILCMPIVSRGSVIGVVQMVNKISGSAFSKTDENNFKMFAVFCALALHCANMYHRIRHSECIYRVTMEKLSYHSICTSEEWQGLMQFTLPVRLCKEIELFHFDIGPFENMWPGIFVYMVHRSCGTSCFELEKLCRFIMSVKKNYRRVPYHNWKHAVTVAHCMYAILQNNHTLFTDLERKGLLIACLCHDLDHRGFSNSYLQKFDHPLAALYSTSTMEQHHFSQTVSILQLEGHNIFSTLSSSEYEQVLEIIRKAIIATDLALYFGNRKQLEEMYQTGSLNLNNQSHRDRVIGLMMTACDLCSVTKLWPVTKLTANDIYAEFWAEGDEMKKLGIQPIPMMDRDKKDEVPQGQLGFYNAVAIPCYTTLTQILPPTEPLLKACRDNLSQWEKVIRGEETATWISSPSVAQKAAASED
pIC50: −log10 of the molar value.
endpointName: pIC50

Input line: Read the entry C[C@@H]1CN(Cc2ccc3nccnc3c2)C[C@H]1c1nc2c(cnn2C2CCCC2)c(=O)[nH]1 and write its reported pIC50.
Output line: < 6.00

====

- targetOrSystem: Dual specificity calcium/calmodulin-dependent 3',5'-cyclic nucleotide phosphodiesterase 1C (Homo sapiens)
- Sequence (Q14123 whole entry): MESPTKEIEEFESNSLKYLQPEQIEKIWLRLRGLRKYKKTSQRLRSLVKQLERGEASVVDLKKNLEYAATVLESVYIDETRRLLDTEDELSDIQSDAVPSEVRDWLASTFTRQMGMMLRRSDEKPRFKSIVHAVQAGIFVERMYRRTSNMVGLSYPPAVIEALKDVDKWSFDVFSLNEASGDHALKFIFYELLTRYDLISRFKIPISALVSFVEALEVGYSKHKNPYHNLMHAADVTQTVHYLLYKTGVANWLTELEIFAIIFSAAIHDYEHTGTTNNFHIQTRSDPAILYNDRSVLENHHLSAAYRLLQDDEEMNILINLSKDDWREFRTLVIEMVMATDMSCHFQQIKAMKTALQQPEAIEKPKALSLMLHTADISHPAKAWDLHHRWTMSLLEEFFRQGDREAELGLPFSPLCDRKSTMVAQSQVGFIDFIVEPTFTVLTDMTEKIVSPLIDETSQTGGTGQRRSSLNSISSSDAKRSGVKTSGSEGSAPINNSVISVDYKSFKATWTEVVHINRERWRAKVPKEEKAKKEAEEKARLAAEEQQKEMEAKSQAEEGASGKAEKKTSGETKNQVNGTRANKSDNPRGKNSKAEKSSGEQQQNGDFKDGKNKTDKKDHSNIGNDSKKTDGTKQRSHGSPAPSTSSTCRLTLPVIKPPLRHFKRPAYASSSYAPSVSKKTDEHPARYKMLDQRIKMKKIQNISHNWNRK
- procedureText: Inhibition of human recombinant PDE1C expressed in Sf9 cells by SPA
endpointName: IC50 (µM)
Give the quantity in µM, number only.

COc1ccc(CN2C[C@@H](C)[C@H](c3nc4c(cnn4C4CCCC4)c(=O)[nH]3)C2)cn1 (relative stereo) : 0.27
CC(C)Cn1ncc2c(=O)[nH]c([C@@H]3CN(Cc4ccccc4)C[C@H]3C)nc21 (relative stereo) : 1.5
C[C@@H]1CN(Cc2ccc3nccnc3c2)C[C@H]1c1nc2c(cnn2C2CCCC2)c(=O)[nH]1 : 0.05
Cc1cnc(CN2C[C@@H](C)[C@H](c3nc4c(cnn4C4CCCC4)c(=O)[nH]3)C2)cn1 (relative stereo) : 0.21
CC(C)n1ncc2c(=O)[nH]c([C@@H]3CN(Cc4ccccc4)C[C@H]3C)nc21 (relative stereo) : 2.1
C[C@@H]1CN(Cc2ccccc2)C[C@H]1c1nc2c(cnn2C2CCCC2)c(=O)[nH]1 (relative stereo) : 0.97
Cc1cc(CN2C[C@@H](C)[C@H](c3nc4c(cnn4C4CCCC4)c(=O)[nH]3)C2)n(C)n1 (relative stereo) : 0.2

Then there is this molecule:
Input line: Return the recorded IC50 value; entry: C[C@@H]1CN(Cc2ccccn2)C[C@H]1c1nc2c(cnn2C2CCCC2)c(=O)[nH]1 (relative stereo)
Output line: 1.3
